# Tested On: T1, human ILT7 (LILRA4) on CHO cells (human, UniProt P59901 28-494)
# T1 construct: also called CHO ILT7 cell line
# T1 sequence (P59901 other isoform, or with tags, fused parts or gaps): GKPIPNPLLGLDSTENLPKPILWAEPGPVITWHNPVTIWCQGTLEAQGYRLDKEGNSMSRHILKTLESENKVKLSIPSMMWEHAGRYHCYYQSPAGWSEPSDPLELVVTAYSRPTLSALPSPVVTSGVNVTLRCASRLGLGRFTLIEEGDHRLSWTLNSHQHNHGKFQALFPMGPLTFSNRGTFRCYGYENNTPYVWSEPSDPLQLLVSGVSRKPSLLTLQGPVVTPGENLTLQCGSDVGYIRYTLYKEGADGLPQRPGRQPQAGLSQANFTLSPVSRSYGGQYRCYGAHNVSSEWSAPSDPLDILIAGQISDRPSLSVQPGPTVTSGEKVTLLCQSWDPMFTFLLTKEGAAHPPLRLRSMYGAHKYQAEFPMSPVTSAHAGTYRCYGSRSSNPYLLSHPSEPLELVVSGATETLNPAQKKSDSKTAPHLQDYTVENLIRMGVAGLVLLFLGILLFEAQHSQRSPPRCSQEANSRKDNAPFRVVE
# Assay Method Text: flow cytometry, CHO transfectants
Attribute Measured: binding result

Q) Reported binding result, binder 18E1 (antibody, human IgG1, V domains shown) VH: QVQLQQSGAELVKPGASVRLSCKASGYTFTAHTIHWVKQRSGQGLEWIGWLYPGSGSIKYNEKFKDKATLTADKSSSTVYMELSRLTSEDSAVYFCARHTNWDFDYWGQGTTLTVSS VL: NIVLTQSPASLAVSLGQRATISCKASQSVDYGGASYMNWYQQKPGQPPKLLIYAASNLESGIPARFSGSGSGTDLTLNIHPVEEEDAAMYYCQQSNEEPWTFGGGTKLEIK : ____
A) no binding

Q) binding result for 27C10 (antibody, human IgG1, V domains shown) VH: EVQLQESGPGLVKPSQSLSLTCSVTGYSITSGYYWNWIRQFPENKLEWMGYIRYDGSNNYNPSLNNRISITRDASKNQFFLKLNSVTTEDTATYYCARGWLLWFYAVDYWGQGTSVTVSS VL: DVVMTQTPLSLPVSLGDQASISCRSSQSIVHTNGNTYLEWYLQKSGQSPKLLIYKVSNRLSGVPDRFSGSGSGTDFTLKISRVEAEDLGIYYCFQGSHVPWTFGGGTKLEIK ?
A) no binding

Reference source: patent US20220025056A1
